Source listed as patent US20260262643A1.

System: oat, wild
Test: Test C preemergence
Type: in vivo, Avena fatua
Conditions: 500 g ai/ha, preemergence; 0 to 100 scale (0 no effect, 100 complete control)

| molecule | Oat, Wild plant response rating |
| --- | --- |
| Cc1cccc2c1O[C@@H](C)CN2C(=O)c1cccc(-n2nccn2)c1 [Compound 282] | 0 |
| CCOC[C@H]1CN(C(=O)c2cc(-n3cnc(C4CCC4)n3)cc3c2OCCO3)c2cccc(Cl)c2O1 [Compound 386] | 40 |
| Cc1ncn(-c2cccc(C(=O)N3C[C@H](C)Oc4c(Cl)cccc43)c2)n1 [Compound 326] | 80 |
| CCOC[C@H]1CN(C(=O)c2cc(-n3cnc(C(C)(C)C)n3)ccc2C)c2cccc(Cl)c2O1 [Compound 413] | 0 |
| Cc1ccc(-n2cnc(C(C)(C)C)n2)cc1C(=O)N1CC(C(F)(F)F)Oc2c(Cl)cccc21 (stereo not shown) [Compound 350] | 50 |
| CCOC[C@H]1CN(C(=O)c2cc(-n3cnc(CC)n3)cc3c2OCCO3)c2cccc(Cl)c2O1 [Compound 387] | 70 |
| CCOCC1CN(C(=O)c2cc(-n3cnc(C4CCC4)n3)ccc2OC)c2cccc(Cl)c2O1 (stereo not shown) [Compound 377] | 20 |

* * *

Measured pest or weed control at 500 g/ha by item
Test system: ragweed
Experiment: Test A postemergence
Format: in vivo, Ambrosia artemisiifolia
Settings: Ambrosia artemisiifolia, post-emergence, 240 h, 500 g ai/ha, postemergence, 10 days, visual injury, 0 to 100 scale (0 no effect, 100 complete control); read-out: Plant response rating, Ragweed

| compound | pest or weed control at 500 g/ha, % |
| --- | --- |
| COCc1ncn(-c2cccc(C(=O)N3C[C@H](C)Oc4c(C)cccc43)c2)n1 [Compound 101] | 50 |
| C[C@H]1CN(C(=O)c2cccc(-n3cnc(C4CCC4)n3)c2)c2cccc(Cl)c2O1 [Compound 93] | 50 |
| CCc1ccc(-n2cnc(C(C)C)n2)cc1C(=O)N1C[C@H](C)Oc2c(Cl)cccc21 [Compound 94] | 50 |

* * *

Measured Plant response rating, Corn by item
Test system: corn
Experiment: Test C postemergence
Assay type: in vivo, Zea mays
Conditions: 125 g ai/ha, postemergence, 10 days; 0 to 100 scale, 0 no effect, 100 complete control

| compound | Plant response rating, Corn |
| --- | --- |
| Cc1cccc2c1O[C@@H](C)CN2C(=O)c1cccc(-n2cnc(N(C)C)n2)c1 | 20 |
| COc1ccc(-n2cnc(C(C)C)n2)cc1C(=O)N1C[C@H](C)Oc2c1cccc2C(F)(F)F | 20 |
| C[C@H]1CN(C(=O)c2cc(-n3cnc(C4CCC4)n3)cc3c2OCCO3)c2cccc(Cl)c2O1 | 10 |
| Cc1c(F)cc(-n2cnc(C(C)C)n2)cc1C(=O)N1C[C@H](C)Oc2c(Cl)cccc21 | 60 |
| CC(C)c1ncn(-c2cccc(C(=O)N3CC(C(F)(F)F)Oc4c(Cl)cccc43)c2)n1 (single isomer, unassigned) | 0 |
| Cc1ccc(-n2cnc(C3CCC3)n2)cc1C(=O)N1CC(C(F)(F)F)Oc2c(Cl)cccc21 (single isomer, unassigned) | 20 |
| CCc1ncn(-c2ccc(OC)c(C(=S)N3C[C@H](C)Oc4c(C)cccc43)c2)n1 | 50 |
| CCc1ncn(-c2ccc(C)c(C(=O)N3CC(C(F)(F)F)Oc4c(Cl)cccc43)c2)n1 (racemic) | 30 |
| Cc1cccc2c1O[C@@H](C)CN2C(=O)c1cc(-n2cnc(C(C)C)n2)cc2occc12 | 50 |
| Cc1cn(-c2cccc(C(=O)N3C[C@H](C)Oc4c(C)cccc43)c2)cn1 | 0 |
| CC(C)c1ncn(-c2cc3c(c(C(=O)N4C[C@H](C)Oc5c(Cl)cccc54)c2)OCCCO3)n1 | 50 |
| CSCc1ncn(-c2ccc(C)c(C(=O)N3C[C@H](C)Oc4c(Cl)cccc43)c2)n1 | 60 |
| Cc1cccc2c1O[C@@H](C)CN2C(=O)c1cc(-n2cnc(C(C)C)n2)cc2ccoc12 | 20 |
| CCc1ncn(-c2ccc(C)c(C(=O)N3C[C@H](COC)Oc4c(Cl)cccc43)c2)n1 | 60 |
| COc1ccc(-n2cnc(C(C)C)n2)cc1C(=O)N1C[C@H](C)Oc2c(C)cccc21 | 80 |
| Cc1ccc(-n2cnc(C(C)(C)O)n2)cc1C(=O)N1C[C@H](C)Oc2c(C)cccc21 | 90 |
| Cc1ccc(-n2cnc(CS(C)(=O)=O)n2)cc1C(=O)N1C[C@H](C)Oc2c(Cl)cccc21 | 80 |
| COc1cc(C(=O)N2C[C@H](C)Oc3c(Cl)cccc32)cc(-n2cnc(C3CC3)n2)c1 | 10 |
| CC(C)=C(C)c1ncn(-c2cccc(C(=O)N3C[C@H](C)Oc4c(C)cccc43)c2)n1 | 60 |
| C[C@H]1CN(C(=O)c2cccc(-c3ncccn3)c2)c2cccc(Cl)c2O1 | 0 |

* * *

System: wheat
Experiment: Test C preemergence
Format: in vivo, Triticum aestivum
Conditions: Preemergence, 125 g ai/ha; 0 to 100 scale, 0 no effect, 100 complete control
Measured Plant response rating, Wheat by item

| compound | Plant response rating, Wheat |
| --- | --- |
| CC(C)c1ncn(-c2cc(C(=O)N3CC(C(F)(F)F)Oc4c(Cl)cccc43)ccn2)n1 (single isomer, unassigned) | 20 |
| CC(C)(C)c1ncn(-c2cccc(C(=O)N3CC(C(F)(F)F)Oc4c(Cl)cccc43)c2)n1 (centres unmarked) | 10 |
| Cc1ccc(-n2cnc(C#N)n2)cc1C(=O)N1C[C@H](C)Oc2c(Cl)cccc21 | 0 |
| COC[C@H]1CN(C(=O)c2cc(-n3cnc(C4CCC4)n3)cc3c2OCCO3)c2cccc(Cl)c2O1 | 0 |
| CC(=O)c1ncn(-c2ccc(C)c(C(=O)N3C[C@H](C)Oc4c(Cl)cccc43)c2)n1 | 40 |

* * *

Tested on: kochia
Test: Test A postemergence
Type: in vivo, Bassia scoparia
Conditions: 500 g ai/ha, postemergence, 10 days, visual injury, 0 to 100 scale (0 no effect, 100 complete control)

| compound | Plant response rating, Kochia |
| --- | --- |
| Cc1cccc2c1OC(C(F)(F)F)CN2C(=O)c1ccnc(-n2cncn2)c1 (centres unmarked) | 60 |
| CCc1ccc(-n2cnc(C3CC3)n2)cc1C(=O)N1C[C@H](C)Oc2c(Cl)cccc21 | 100 |
| Cc1nc(C)n(-c2cccc(C(=O)N3C[C@H](C)Oc4c(Cl)cccc43)c2)n1 | 50 |
| CC(C)c1ncn(-c2ccc(C#N)c(C(=O)N3C[C@H](C)Oc4c(Cl)cccc43)c2)n1 | 90 |
| CC(C)Oc1ccc(-n2cnc(C(C)C)n2)cc1C(=O)N1C[C@H](C)Oc2c(Cl)cccc21 | 90 |

* * *

Measured Plant response rating, Barnyardgrass by item
Test system: barnyardgrass
Test: Test C postemergence
Type: in vivo, Echinochloa crusgalli
Details: Postemergence, 125 g ai/ha; 0 to 100 scale (0 no effect, 100 complete control), 10 days

| compound | Plant response rating, Barnyardgrass |
| --- | --- |
| Cc1ccc(-n2cnc(C(C)(C)C#N)n2)cc1C(=O)N1C[C@H](C)Oc2c(Cl)cccc21 | 40 |
| CSc1ccc(-n2cnc(C(C)C)n2)cc1C(=O)N1C[C@H](C)Oc2c(Cl)cccc21 | 40 |
| Cc1ccc(-n2cncn2)cc1C(=O)N1CC(C(F)(F)F)Oc2c(Cl)cccc21 (stereo not drawn) | 40 |

* * *

Measured Pigweed, Palmer plant response rating by item
Test system: pigweed, palmer
Test: Test C preemergence
Format: in vivo, Amaranthus palmeri
Details: Test C, preemergence, 125 g ai/ha; 0 to 100 scale (0 no effect, 100 complete control)

| molecule | Pigweed, Palmer plant response rating |
| --- | --- |
| COC[C@H]1CN(C(=O)c2cc(-n3cncn3)ccc2OC)c2cccc(Cl)c2O1 | 60 |
| Cc1cccc2c1OC(C(F)(F)F)CN2C(=O)c1cccc(-n2cnc(C(C)C)n2)c1 (racemic) | 90 |
| COc1ccc(-n2cnc(C(C)C)n2)cc1C(=O)N1C[C@H](C)Oc2c(F)cccc21 | 100 |
| Cc1ccc(-n2cnc(C3(C)COC3)n2)cc1C(=O)N1C[C@H](C)Oc2c(Cl)cccc21 | 100 |
| Cc1cccc2c1O[C@@H](C)CN2C(=O)c1cccc(-n2cnc(N)n2)c1 | 20 |
| Cc1ccc(-n2cnc(C[S+](C)[O-])n2)cc1C(=O)N1C[C@H](C)Oc2c(Cl)cccc21 (stereo partly drawn) | 90 |
| C[C@H]1CN(C(=O)c2cc(-n3cnc(C(C)(C)C)n3)cc3c2OCCO3)c2cccc(Cl)c2O1 | 100 |
| Cc1ccc(-n2cnc(C3(C(F)(F)F)CC3)n2)cc1C(=O)N1C[C@H](C)Oc2c(Cl)cccc21 | 100 |
| COc1ccc(-n2cnc(C(C)C)n2)cc1C(=O)N1C[C@H](C)Oc2c1cccc2C(F)(F)F | 100 |
| COc1ccc(-n2cncn2)cc1C(=O)N1C[C@H](C)Oc2c(F)cccc21 | 90 |
| Cc1c(F)cc(-n2cnc(C(C)C)n2)cc1C(=O)N1C[C@H](C)Oc2c(Cl)cccc21 | 100 |
| COC[C@H]1CN(C(=O)c2cc(-n3cnc(C(C)C)n3)ccc2C)c2cccc(Cl)c2O1 | 100 |
| CCc1ncn(-c2ccc(OC)c(C(=O)N3C[C@H](COC)Oc4c(Cl)cccc43)c2)n1 | 100 |
| Cc1cc(-n2cnc(C(C)C)n2)cc(C(=O)N2C[C@H](C)Oc3c(Cl)cccc32)c1F | 100 |
| Cc1cccc2c1O[C@@H](C)CN2C(=O)c1cccc(-n2cnc(N(C)S(C)(=O)=O)n2)c1 | 50 |
